# TGT: human σ2/TMEM97 receptor (Homo sapiens, UniProt Q5BJF2)
# Construct: expressed in transfected cells; host or cells: HEK-293
# Sequence (Q5BJF2 whole entry): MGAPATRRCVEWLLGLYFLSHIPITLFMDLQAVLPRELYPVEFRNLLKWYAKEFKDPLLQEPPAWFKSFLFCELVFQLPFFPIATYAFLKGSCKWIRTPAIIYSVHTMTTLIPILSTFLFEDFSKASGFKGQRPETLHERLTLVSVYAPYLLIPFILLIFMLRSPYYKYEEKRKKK
# METHOD NOTES: Binding assay to human σ2/TMEM97 receptor ([3H]-DTG)
# RECORDED CONDITIONS: transfected HEK-293 membranes, 10 nM [3H]-DTG, 25° C., 120 minutes; read-out: Binding σ-[…] (binding to σ2-receptor expressed as Ki)
Where a name gives a salt, the structure may show the parent alone.
Listing of recorded Ki by entry.

// known answers, use as guide
molecule=Cc1ccc2c(n1)C(C)(C)CN2C(=O)[C@H]1CN(Cc2ccccc2)C[C@@H]1C quantity_measured=Ki result="100 to 500 nM"
molecule=CN(CCc1ccccc1)[C@H]1CCCN(C(=O)N2CCc3ncccc32)C1 quantity_measured=Ki result="100 to 500 nM"
molecule=Cc1ccc2c(n1)C(C)(C)CN2C(=O)NC[C@H](Cc1ccccc1)N(C)C quantity_measured=Ki result="> 1000 nM"
molecule=CC1(C)CN(C(=O)C2CN(Cc3ccccc3)C2)c2cccnc21 quantity_measured=Ki result="100 to 500 nM"
molecule=CC1(C)CN(C(=O)N2CCC3(CCN(Cc4cc(C#N)c(F)cc4F)CC3)CC2)c2cccnc21 quantity_measured=Ki result="< 100 nM"
molecule=CC1(C)CN(C(=O)NC2CCN(Cc3ccc(F)cc3)CC2)c2cccnc21 quantity_measured=Ki result="> 1000 nM"
molecule=Cc1ccc2c(n1)C(C)(C)CN2C(=O)NC[C@@H](c1ccccc1)N(C)C quantity_measured=Ki result="> 1000 nM"
molecule=CC1(C)CN(C(=O)N2CCC3(CCN(Cc4cccc(F)c4)CC3)C2)c2cccnc21 quantity_measured=Ki result="< 100 nM"

Query: Please provide the recorded Ki for Cc1ccc2c(n1)C(C)(C)CN2C(=O)[C@H]1CC[C@H](N(C)Cc2cc(F)cc(F)c2)CC1 , tested on human σ2/TMEM97 receptor (Homo sapiens, UniProt Q5BJF2).
Response: < 100 nM

Query: Item: Cc1ccc2c(n1)C(C)(C)CN2C(=O)N1CCC2(CCN(C(C)c3ccccc3)CC2)C1 (centres unmarked) Test system: human σ2/TMEM97 receptor (Homo sapiens, UniProt Q5BJF2) Read-out: Ki Value: ?
Response: 100 to 500 nM

Query: Value wanted: Ki (human σ2/TMEM97 receptor (Homo sapiens, UniProt Q5BJF2)) of entry Cc1ccc2c(n1)C(C)(C)CN2C(=O)N1CCC(N(C)CC2CCOCC2)CC1
Response: < 100 nM

Query: Record lookup: for human σ2/TMEM97 receptor (Homo sapiens, UniProt Q5BJF2), what Ki belongs to COc1cccc([C@H](CNC(=O)N2CC(C)(C)c3nc(C)ccc32)N(C)C)c1 ?
Response: > 1000 nM

Query: Param readout= Ki; system= human σ2/TMEM97 receptor (Homo sapiens, UniProt Q5BJF2); entry= Cc1ccc2c(n1)C(C)(C)CN2C(=O)[C@H]1CC[C@H](N(C)Cc2ccc(C(F)(F)F)nc2)CC1 ; returns value.
Response: < 100 nM

Query: API: value(readout=Ki, system=human σ2/TMEM97 receptor (Homo sapiens, UniProt Q5BJF2)) for record CC1(C)CN(C(=O)[C@H]2CC[C@H](NCc3ccccc3)CC2)c2cccnc21 [Example 128, dihydrochloride]
Response: 100 to 500 nM
